The measurements presented in this section are drawn from ChEMBL document CHEMBL2169739.

Catalogue of Ratio Ki values
# Assay Protocol: Selectivity index, ratio of Ki for JAK2 to Ki for LRRK2
Attribute Measured: Ratio Ki

> print(dat)
                            compound.smiles  obs.value
1                 CNc1nc(Nc2ccccc2Br)ncc1Cl       > 97
2   CNc1nc(Nc2ccc(C(=O)N3CCOCC3)cc2C)ncc1Cl      > 457
3                 CNc1nc(Nc2ccccc2OC)ncc1Cl      > 533
4                   CNc1nc(Nc2ccccc2)ncc1Cl          6
5   CNc1nc(Nc2ccc(C(=O)N3CCOCC3)cc2OC)ncc1F       > 45
6  CNc1nc(Nc2ccc(C(=O)N3CCOCC3)cc2OC)ncc1C(F)(F)F     > 3200
